The compounds listed here are annotated with their pKi.
target: Rat Striatal Nicotinic Acetylcholine Receptors ([^3H]nicotine binding sites) (Rattus norvegicus, UniProt P09483+P12390); construct: Striata from two rats were dissected, pooled, and homogenized; from tissue; host or cells: rat striatum membranes; assay: biochemical; conditions: rat striatal membranes, 3 nM [^3H]-nicotine; read-out: Ki, specific binding of [^3H]-nicotine
Sequence (P09483 31-630): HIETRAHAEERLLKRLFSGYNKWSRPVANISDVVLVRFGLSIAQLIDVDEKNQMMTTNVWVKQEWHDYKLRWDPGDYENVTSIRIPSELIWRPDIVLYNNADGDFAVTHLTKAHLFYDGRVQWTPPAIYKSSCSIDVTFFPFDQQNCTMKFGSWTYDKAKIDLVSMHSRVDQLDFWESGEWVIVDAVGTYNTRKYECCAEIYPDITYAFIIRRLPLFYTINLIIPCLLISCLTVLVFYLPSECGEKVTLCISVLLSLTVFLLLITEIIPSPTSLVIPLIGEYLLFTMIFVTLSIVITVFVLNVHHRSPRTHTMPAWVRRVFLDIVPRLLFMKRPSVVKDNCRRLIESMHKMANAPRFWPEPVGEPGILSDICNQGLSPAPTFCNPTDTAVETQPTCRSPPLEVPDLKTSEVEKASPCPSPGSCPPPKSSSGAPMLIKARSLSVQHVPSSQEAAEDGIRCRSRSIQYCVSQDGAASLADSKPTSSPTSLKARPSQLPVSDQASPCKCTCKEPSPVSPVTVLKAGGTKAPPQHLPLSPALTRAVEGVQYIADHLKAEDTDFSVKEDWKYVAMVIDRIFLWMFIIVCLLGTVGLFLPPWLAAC
Sequence (P12390 25-500): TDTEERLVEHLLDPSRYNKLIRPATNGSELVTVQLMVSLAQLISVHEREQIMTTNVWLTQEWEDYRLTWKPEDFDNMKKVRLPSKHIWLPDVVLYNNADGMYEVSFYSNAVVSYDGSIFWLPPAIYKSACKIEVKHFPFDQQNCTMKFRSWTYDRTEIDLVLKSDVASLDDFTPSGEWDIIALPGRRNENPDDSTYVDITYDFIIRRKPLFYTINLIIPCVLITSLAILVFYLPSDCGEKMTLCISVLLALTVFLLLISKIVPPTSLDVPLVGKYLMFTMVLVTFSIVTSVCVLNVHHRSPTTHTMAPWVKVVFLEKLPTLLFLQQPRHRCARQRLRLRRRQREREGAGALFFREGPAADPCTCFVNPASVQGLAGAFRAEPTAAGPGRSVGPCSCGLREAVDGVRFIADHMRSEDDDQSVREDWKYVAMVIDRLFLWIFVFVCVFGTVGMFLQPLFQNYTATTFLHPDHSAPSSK
The quantity pKi is defined as the negative base-10 logarithm of the molar concentration.

c1ccc2c(c1)ccc[n+]2CCCCCCCCCCC[n+]1cccc2ccccc21 :: 4.42
CN1CCC[C@H]1c1ccc[n+](CCCCCCCCCCCC[n+]2cccc([C@@H]3CCCN3C)c2)c1 :: 5.84
c1cc[n+](CCCCCCCCCC[n+]2ccccc2)cc1 :: 4.73

Continue with the next compound.
Prompt: What pKi value was documented for this compound, c1cc[n+](CCCCCCCCC[n+]2ccccc2)cc1 ?
Response: 4.62
